Target: Angiotensin-converting enzyme (Oryctolagus cuniculus, UniProt P12822)
Sequence (P12822 whole entry): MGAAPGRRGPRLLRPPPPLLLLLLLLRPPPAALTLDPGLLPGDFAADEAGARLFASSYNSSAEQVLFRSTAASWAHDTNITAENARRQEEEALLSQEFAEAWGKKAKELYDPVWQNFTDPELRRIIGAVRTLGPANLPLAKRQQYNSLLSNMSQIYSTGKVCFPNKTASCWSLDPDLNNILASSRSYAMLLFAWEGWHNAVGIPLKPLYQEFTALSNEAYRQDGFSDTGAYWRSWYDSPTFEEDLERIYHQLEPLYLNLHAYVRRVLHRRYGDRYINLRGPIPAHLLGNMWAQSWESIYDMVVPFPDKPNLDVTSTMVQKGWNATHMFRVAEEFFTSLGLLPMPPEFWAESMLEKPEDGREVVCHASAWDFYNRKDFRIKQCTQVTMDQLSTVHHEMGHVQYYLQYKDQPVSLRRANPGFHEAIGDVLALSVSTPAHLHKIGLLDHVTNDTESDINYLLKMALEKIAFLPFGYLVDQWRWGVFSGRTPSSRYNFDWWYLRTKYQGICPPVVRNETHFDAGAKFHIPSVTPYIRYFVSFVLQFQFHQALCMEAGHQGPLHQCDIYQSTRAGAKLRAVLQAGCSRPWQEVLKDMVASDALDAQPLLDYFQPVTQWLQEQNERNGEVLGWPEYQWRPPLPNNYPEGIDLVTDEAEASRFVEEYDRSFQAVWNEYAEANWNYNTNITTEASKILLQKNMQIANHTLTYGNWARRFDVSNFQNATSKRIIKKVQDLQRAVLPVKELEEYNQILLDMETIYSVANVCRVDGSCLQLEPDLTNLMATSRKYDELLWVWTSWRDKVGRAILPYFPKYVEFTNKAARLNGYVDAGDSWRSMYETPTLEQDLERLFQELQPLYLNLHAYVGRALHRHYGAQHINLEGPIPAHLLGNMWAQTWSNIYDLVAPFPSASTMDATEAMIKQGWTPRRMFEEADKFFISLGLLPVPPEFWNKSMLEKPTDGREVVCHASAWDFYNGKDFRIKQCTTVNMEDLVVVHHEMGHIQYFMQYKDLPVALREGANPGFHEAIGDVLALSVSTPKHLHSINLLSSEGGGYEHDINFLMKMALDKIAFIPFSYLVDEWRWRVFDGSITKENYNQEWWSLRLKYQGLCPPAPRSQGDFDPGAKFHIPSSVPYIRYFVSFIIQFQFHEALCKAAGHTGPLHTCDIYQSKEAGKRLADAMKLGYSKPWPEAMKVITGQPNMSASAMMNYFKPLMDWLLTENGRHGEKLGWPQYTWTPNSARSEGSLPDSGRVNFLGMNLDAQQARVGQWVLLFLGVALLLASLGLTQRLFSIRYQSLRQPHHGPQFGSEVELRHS
Experiment: In vitro inhibition of Angiotensin I converting enzyme in rabbit lung
Assay type: tissue-based
Measured attribute: IC50 (µM)
Form entry: value (µM) — number only.

I'd like to know its IC50. The compound in question is C[C@H](N[C@@H](CCc1ccccc1)C(=O)O)C(=O)N1CC(NNC(=O)c2ccc(Cl)c(S(N)(=O)=O)c2)C[C@H]1C(=O)O (stereo partly specified) 0.026

----------
Biological target: Angiotensin-converting enzyme (Oryctolagus cuniculus) (UniProt P12822)
Assay: Time to inhibit maximum angiotensin I converting enzyme in rabbit lung
Type: functional, tissue-based
The entries below come with measured Time to max. inhibition values attached.
I only need the number, in h, no unit after it.

Molecule	Measured attribute	Reported
C[C@H](N[C@@H](CCc1ccccc1)C(=O)O)C(=O)N1CC2(C[C@H]1C(=O)O)Nc1cc(Cl)c(S(N)(=O)=O)cc1S(=O)(=O)N2 (stereo not given in full)	Time to max. inhibition	1

# lookup: Time to max. inhibition of C[C@H](N[C@@H](CCc1ccccc1)C(=O)O)C(=O)N1C[C@@H](NS(=O)(=O)c2cc(S(N)(=O)=O)c(N)cc2Cl)C[C@H]1C(=O)O 0.3

What value of measured Time to max. inhibition is listed for C[C@H](N[C@@H](CCc1ccccc1)C(=O)O)C(=O)N1C[C@H](OCCC2Nc3cc(Cl)c(S(N)(=O)=O)cc3S(=O)(=O)N2)C[C@H]1C(=O)O (stereo not given in full) ? 0.3

Time to max. inhibition for C[C@H](N[C@@H](CCc1ccccc1)C(=O)O)C(=O)N1C[C@@H](NS(=O)(=O)c2cc3c(cc2Cl)NC=NS3(=O)=O)C[C@H]1C(=O)O ? 0.3

What value of Time to max. inhibition has been recorded for this entry: C[C@H](N[C@@H](CCc1ccccc1)C(=O)O)C(=O)N1C(c2ccc(Cl)c(S(N)(=O)=O)c2)SC[C@H]1C(=O)O (stereo not given in full) 0.3

----------
Molecular target: Angiotensin-converting enzyme (Oryctolagus cuniculus)
Assay: Time during which angiotensin I converting enzyme inhibition is greater than or equa to 30% in rabbit lung
Assay type: functional, tissue-based
Measured attribute: Duration (h)
Numbers only; they are read as h.

Solved cases below.
Compound	Reported
C[C@H](N[C@@H](CCc1ccccc1)C(=O)O)C(=O)N1CC2(C[C@H]1C(=O)O)Nc1cc(Cl)c(S(N)(=O)=O)cc1S(=O)(=O)N2 (some centres undefined)	2.1
C[C@H](N[C@@H](CCc1ccccc1)C(=O)O)C(=O)N1C[C@H](OCCC2Nc3cc(Cl)c(S(N)(=O)=O)cc3S(=O)(=O)N2)C[C@H]1C(=O)O (some centres undefined)	3.7
C[C@H](N[C@@H](CCc1ccccc1)C(=O)O)C(=O)N1C[C@@H](NS(=O)(=O)c2cc3c(cc2Cl)NC=NS3(=O)=O)C[C@H]1C(=O)O	1.25

// fetch Angiotensin-converting enzyme (Oryctolagus cuniculus) Duration for C[C@H](N[C@@H](CCc1ccccc1)C(=O)O)C(=O)N1C[C@@H](NS(=O)(=O)c2cc(S(N)(=O)=O)c(N)cc2Cl)C[C@H]1C(=O)O 3.7

----------
Species on record: Rattus norvegicus
Test: The onset hour was determined in rat
Assay type: functional
Each entry below carries its reported Onset.
Numbers only; they are read as h.

Molecule	Measured attribute	Reported
CCOC(=O)[C@H](CCc1ccccc1)N[C@@H](C)C(=O)N1CCC[C@H]1C(=O)O	Onset	1
C[C@H](N[C@@H](CCc1ccccc1)C(=O)O)C(=O)N1C[C@H](OCCC2Nc3cc(Cl)c(S(N)(=O)=O)cc3S(=O)(=O)N2)C[C@H]1C(=O)O (some centres undefined)	Onset	0.25

// below: Onset requested for another molecule
Bench note: what Onset did C[C@H](N[C@@H](CCc1ccccc1)C(=O)O)C(=O)N1CC(N(C)CCC2Nc3cc(Cl)c(S(N)(=O)=O)cc3S(=O)(=O)N2)C[C@H]1C(=O)O.Cl.Cl (some centres undefined) show? 0.5

----------
Documented inhibition across a set of compounds
Biological target: UniProtKB P12822
Sequence (whole entry): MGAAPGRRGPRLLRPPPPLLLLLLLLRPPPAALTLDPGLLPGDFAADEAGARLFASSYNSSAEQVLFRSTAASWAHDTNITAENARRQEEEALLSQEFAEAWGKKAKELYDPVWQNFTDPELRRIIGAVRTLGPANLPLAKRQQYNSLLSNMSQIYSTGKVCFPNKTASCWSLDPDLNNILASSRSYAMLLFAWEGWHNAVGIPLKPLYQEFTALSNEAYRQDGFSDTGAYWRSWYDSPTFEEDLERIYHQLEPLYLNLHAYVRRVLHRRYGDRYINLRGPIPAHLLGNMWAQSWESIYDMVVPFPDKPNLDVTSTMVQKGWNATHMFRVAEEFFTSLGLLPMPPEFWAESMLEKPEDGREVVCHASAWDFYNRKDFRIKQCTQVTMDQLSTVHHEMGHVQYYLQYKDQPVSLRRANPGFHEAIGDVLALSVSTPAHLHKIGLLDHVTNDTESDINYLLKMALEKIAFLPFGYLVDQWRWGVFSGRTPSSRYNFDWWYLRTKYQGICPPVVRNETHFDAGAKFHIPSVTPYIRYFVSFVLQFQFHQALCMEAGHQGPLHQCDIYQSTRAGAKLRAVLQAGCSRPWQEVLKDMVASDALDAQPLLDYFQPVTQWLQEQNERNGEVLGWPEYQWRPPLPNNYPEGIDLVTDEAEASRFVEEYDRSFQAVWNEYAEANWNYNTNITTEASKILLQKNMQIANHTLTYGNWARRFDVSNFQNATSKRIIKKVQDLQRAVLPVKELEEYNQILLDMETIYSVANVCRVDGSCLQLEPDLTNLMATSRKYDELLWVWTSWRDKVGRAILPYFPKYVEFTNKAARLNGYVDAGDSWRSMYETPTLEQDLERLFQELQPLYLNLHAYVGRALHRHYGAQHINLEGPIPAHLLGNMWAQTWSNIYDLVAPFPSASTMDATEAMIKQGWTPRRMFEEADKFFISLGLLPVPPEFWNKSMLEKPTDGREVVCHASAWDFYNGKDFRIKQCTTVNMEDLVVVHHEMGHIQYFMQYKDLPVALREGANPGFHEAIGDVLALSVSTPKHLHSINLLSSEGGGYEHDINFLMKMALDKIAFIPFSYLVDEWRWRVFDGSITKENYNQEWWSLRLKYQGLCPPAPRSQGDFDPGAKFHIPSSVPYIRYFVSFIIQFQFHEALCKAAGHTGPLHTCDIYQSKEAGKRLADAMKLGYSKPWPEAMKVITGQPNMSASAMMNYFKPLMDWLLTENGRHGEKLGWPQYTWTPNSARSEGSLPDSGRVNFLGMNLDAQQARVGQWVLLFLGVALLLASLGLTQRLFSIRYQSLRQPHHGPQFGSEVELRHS
Assay: In vivo inhibition of angiotensin I converting enzyme (ACE) in rabbit lung after (iv) administration of a dose of 10(mg/kg)
Type: organism-based
Write the value in % as a bare number.

Illustrative cases are given below, each with its answer.
Compound	inhibition / %
C[C@H](N[C@@H](CCc1ccccc1)C(=O)O)C(=O)N1C[C@H](OCCC2Nc3cc(Cl)c(S(N)(=O)=O)cc3S(=O)(=O)N2)C[C@H]1C(=O)O (some centres undefined)	100
C[C@H](N[C@@H](CCc1ccccc1)C(=O)O)C(=O)N1CC(N(C)CCC2Nc3cc(Cl)c(S(N)(=O)=O)cc3S(=O)(=O)N2)C[C@H]1C(=O)O.Cl.Cl (some centres undefined)	96
C[C@H](N[C@@H](CCc1ccccc1)C(=O)O)C(=O)N1C[C@@H](NS(=O)(=O)c2cc3c(cc2Cl)NC=NS3(=O)=O)C[C@H]1C(=O)O	78

Read the next record carefully.
Request the reported inhibition associated with C[C@H](N[C@@H](CCc1ccccc1)C(=O)O)C(=O)N1C[C@@H](NS(=O)(=O)c2cc(S(N)(=O)=O)c(N)cc2Cl)C[C@H]1C(=O)O 76
